Give measured Osmolality mosm/kg at 300mg I/ml for each item. Keep answers brief.
testName: Osmolality of aqueous solutions
Type: physicochemical
runParameters: 300mg I/ml
Please respond with the number in mosm/kg and leave the unit unwritten.

Data request: Please look at this molecule and report its Osmolality mosm/kg at 300mg I/ml: CC(=O)Nc1c(I)c(C(=O)NCC(O)CO)c(I)c(C(=O)N(C)CC(=O)N(C)c2c(I)c(C(=O)NCC(O)CO)c(I)c(C(=O)NCC(O)CO)c2I)c1I (stereo not drawn)
Data returned: 130

Data request: For O=C(CN(CC(O)CO)C(=O)c1c(I)c(NC(=O)CO)c(I)c(C(=O)NCC(O)CO)c1I)Nc1c(I)c(C(=O)NCC(O)CO)c(I)c(C(=O)NCC(O)CO)c1I (stereo not drawn) , write its Osmolality mosm/kg at 300mg I/ml.
Data returned: 190

Data request: For the molecule CC(=O)Nc1c(I)c(C(=O)NCC(O)CO)c(I)c(C(=O)N(C)CC(=O)N(C)c2c(I)c(C(=O)N(CCO)CC(O)CO)c(I)c(C(=O)N(CCO)CC(O)CO)c2I)c1I (stereo not drawn) , give its measured Osmolality mosm/kg at 300mg I/ml value.
Data returned: 180

These entries and their values trace back to patent EP0571593B1.
